- Test system: SF-268 CNS
- Assay notes: NCI tumour cell line growth inhibition, 48 h

Compound	TGI
Cc1cc(C)nc(NS(=O)(=O)c2ccc(Nc3c4ccccc4nc4c(C(=O)Nc5ccc(S(N)(=O)=O)cc5)cccc34)cc2)n1	> 100 µM
N=C(/C=C/c1ccc(-c2cn3cc(/C=C/C(=N)N4CCCC4)ccc3n2)cc1)N1CCCC1	> 100 µM
COc1c(OC(C)=O)ccc(/C=C2\N=C(C)OC2=O)c1[N+](=O)[O-]	> 100 µM
COc1cc(C2CC(c3cccc(Nc4ccncc4)c3)=NN2c2cc(Cl)cc(Cl)c2)cc(OC)c1OC (stereo not given)	3.21 µM
Cc1ccc(S(=O)(=O)N2CCCSCCSCCCSCC2)cc1	> 100 µM

# credit: PubChem BioAssay (NCI)
